Where these numbers come from: patent US20240360146A1

Assay: Mouse absorption test (pharmacokinetic properties in mice)
Assay type: in vivo
Conditions: intragastric, 30 mg/kg, DNAUC = AUC/Dose
RECORDED ENDPOINT: DNAUC (ng/ml*h/mpk)

(1) COc1cc(N2CCC(CN3CCN(c4ccc(Nc5nc(N6CCC[C@@H](N7CCN(C)C7=O)C6)nnc5C(N)=O)cc4F)CC3)CC2)ccc1N1CCC(=O)NC1=O [Compound 259]
(2) CN1CCN([C@@H]2CCCN(c3nnc(C(N)=O)c(Nc4ccc(N5CCN(C[C@@H]6CCN(c7ccc8c(c7)C(=O)N(C7CCC(=O)NC7=O)C8=O)C6)CC5)c(F)c4)n3)C2)C1=O (some centres unmarked) [Compound 131]
Qu. When the recorded DNAUC values are compared, which is smaller: that of 1 or that of 2 ? Refer to your chosen item by its label in the answer.
Ans. 1
(1: 2223 ng/ml*h/mpk, 2: 3614 ng/ml*h/mpk)

(I) CN1CCN([C@@H]2CCCN(c3nnc(C(N)=O)c(Nc4ccc(N5CCN(CC6CCN(c7ccc(N8CCC(=O)NC8=O)cc7)CC6)CC5)c(F)c4)n3)C2)C1=O [Compound 255]
(II) CN1CCN([C@@H]2CCCN(c3nnc(C(N)=O)c(Nc4ccc(N5CCN(CC6CCN(c7ccc8c(c7)C(=O)N(C7CCC(=O)NC7=O)C8=O)C6)CC5)c(F)c4)n3)C2)C1=O (some centres unmarked) [Compound 130]
Qu. Just curious, which one has the larger DNAUC reading, I or II ? When you have decided, please share the label of that item.
Ans. II

---

Target: BTK (Homo sapiens, UniProt Q06187)
Construct: endogenous in cells; host or cells: Mino cells
Sequence (Q06187 whole entry): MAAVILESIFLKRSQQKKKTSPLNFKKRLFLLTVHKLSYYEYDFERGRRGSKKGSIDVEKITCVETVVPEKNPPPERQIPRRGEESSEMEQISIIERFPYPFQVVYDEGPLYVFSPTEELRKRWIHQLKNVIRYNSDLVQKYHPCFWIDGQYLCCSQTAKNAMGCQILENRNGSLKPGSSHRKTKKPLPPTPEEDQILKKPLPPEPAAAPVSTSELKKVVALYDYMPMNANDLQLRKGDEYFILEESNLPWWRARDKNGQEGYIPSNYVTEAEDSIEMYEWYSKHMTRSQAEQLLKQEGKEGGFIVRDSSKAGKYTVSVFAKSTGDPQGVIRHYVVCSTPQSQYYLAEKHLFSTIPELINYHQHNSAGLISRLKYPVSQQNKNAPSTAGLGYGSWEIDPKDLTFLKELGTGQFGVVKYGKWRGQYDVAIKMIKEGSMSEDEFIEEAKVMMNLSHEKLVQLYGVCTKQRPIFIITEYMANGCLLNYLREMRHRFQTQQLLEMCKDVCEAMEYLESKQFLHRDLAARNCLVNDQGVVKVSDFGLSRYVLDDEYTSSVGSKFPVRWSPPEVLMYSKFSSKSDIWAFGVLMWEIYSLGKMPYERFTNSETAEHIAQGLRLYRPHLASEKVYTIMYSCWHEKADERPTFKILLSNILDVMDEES
Experiment: BTK degradation activity test in Mino cells
Type: cell-based
Conditions: 16 h incubation, Western blot or Elisa
RECORDED ENDPOINT: DC50

These recorded examples may help you get a feel for the data.
MOLECULE	SYSTEM TESTED	DC50
CC1(c2ccc(Nc3nc(N4CCCC(N5CCN(C6CCOCC6)C5=O)C4)cnc3C(N)=O)cc2)CCN(C2CN(c3ccc4c(c3)C(=O)N(C3CCC(=O)NC3=O)C4=O)C2)CC1 (stereo not drawn)	BTK (Homo sapiens, UniProt Q06187)	< 1 nM
CN1CCN([C@@H]2CCCN(c3nnc(C(N)=O)c(Nc4ccc(N5CCN(CC6CCN(c7ccc(N8CCC(=O)NC8=O)c8ocnc78)CC6)CC5)c(F)c4)n3)C2)C1=O	BTK (Homo sapiens, UniProt Q06187)	< 1 nM

Please turn your attention to the following entry.
Qu. Please report the recorded DC50 for CN1CCN([C@@H]2CCCN(c3nnc(C(N)=O)c(Nc4ccc(N5CCN(C[C@@H]6CCN(c7ccc(N8CCC(=O)NC8=O)cc7)C6)CC5)c(F)c4)n3)C2)C1=O .
Ans. < 1 nM

---

Target: BTK (Homo sapiens)
Construct: endogenous in cells; host or cells: Mino cells
Assay: BTK degradation activity test in Mino cells
Assay type: cell-based
Details: 16 h incubation, Western blot or Elisa
RECORDED ENDPOINT: DC50

MOLECULE	DC50
CN1CCN(C2CCCN(c3nnc(C(N)=O)c(Nc4ccc(C5CCN(C6CCN(c7ccc8c(c7)C(=O)N(C7CCC(=O)NC7=O)C8=O)CC6)CC5)cc4)n3)C2)C1=O (centres unmarked)	< 1 nM
NC(=O)c1nnc(N2CCC[C@@H](N3CCN(CC(F)(F)F)C3=O)C2)nc1Nc1ccc(N2CCC(CN3CCN(c4cc5c(cc4F)C(=O)N(C4CCC(=O)NC4=O)C5=O)CC3)CC2)cc1 (some centres unmarked)	< 1 nM
CN1CCN([C@@H]2CCCN(c3nnc(C(N)=O)c(Nc4ccc(N5CCN(C#Cc6ccc(C(=O)NC7CCC(=O)NC7=O)c(F)c6)CC5)c(F)c4)n3)C2)C1=O (some centres unmarked)	< 1 nM
CN1CCN(C2CC3CCC2N(c2nnc(C(N)=O)c(Nc4ccc(C5CCN(CC6CCN(c7ccc8c(c7)C(=O)N(C7CCC(=O)NC7=O)C8=O)CC6)CC5)cc4)n2)C3)C1=O (centres unmarked)	> 1 nM

With those in mind, consider the next molecule.
Qu. Quick check: DC50 of NC(=O)c1nnc(N2CCCC(N3CCN(c4ccccc4)C3=O)C2)nc1Nc1ccc2c(c1)CCN(CC1CCN(c3ccc4c(c3)C(=O)N(C3CCC(=O)NC3=O)C4=O)CC1)C2 (centres unmarked) ?
Ans. < 1 nM

---

Catalogue of DC50 readings, one per entry.
Target: BTK (Homo sapiens)
Construct: endogenous in cells; host or cells: Mino cells
Experiment: BTK degradation activity test in Mino cells
Type: cell-based
Conditions: 16 h incubation, Western blot or Elisa
Protocol: Mino cell line cells were seeded at 500,000 to 1,000,000 cells/well in a 6-well plate. The compounds were diluted to different concentrations and added to the plate, and after 16 h of incubation, cells were harvested. After lysing the cells, the total protein concentration in each well was determined using the BCA method. The amount of BTK was determined using Western blot or Elisa method. […]

Reference set (2 entries):
COMPOUND	REPORTED VALUE
CN1CCN([C@@H]2CCCN(c3nnc(C(N)=O)c(Nc4ccc(N5CCN(CC6CCN(c7ccc(N8CCC(=O)NC8=O)nc7)CC6)CC5)c(F)c4)n3)C2)C1=O [Compound 195]	< 1 nM
CCc1nc(C(N)=O)c(Nc2ccc(C3(C)CCN(C4CN(c5ccc6c(c5)C(=O)N(C5CCC(=O)NC5=O)C6=O)C4)CC3)cc2)nc1N1CCCC(N2CCN(C)C2=O)C1 (stereo not drawn) [Compound 007]	< 1 nM

# ---- query compound ----
Qu. DC50 lookup needed for CC1(c2ccc(Nc3nc(N4CCCC(N5CCN(c6ccccc6)C5=O)C4)nnc3C(N)=O)cc2)CCN(C2CN(c3ccc4c(c3)C(=O)N(C3CCC(=O)NC3=O)C4=O)C2)CC1 (stereo not drawn) [Compound 092] , thanks.
Ans. > 1 nM

---

Tested on: OCL-LY10 transplanted tumors
Assay: Chronic efficacy test, OCL-LY10 subcutaneous transplanted tumor model
Type: in vivo
Settings: NOD/SCID mice, intragastric 10 mg/kg, 3 weeks
Overview of recorded TGI (%) for various molecules
Report the value in % with no unit label.

The cases that follow already have their TGI (%) on record.
MOLECULE	TGI (%)
C=CC(=O)N1CCC[C@@H](n2nc(-c3ccc(Oc4ccccc4)cc3)c3c(N)ncnc32)C1	50.72
NC(=O)c1ncc(N2CCCCC2)nc1Nc1ccc(C2CCN(C[C@H]3CCN(c4ccc5c(c4)C(=O)N(C4CCC(=O)NC4=O)C5=O)C3)CC2)cc1 (some centres unmarked) [Compound c, reference compound]	67.59
Cc1cc(N2CCC(CN3CCN(c4ccc(Nc5nc(N6CCC[C@@H](N7CCN(C)C7=O)C6)nnc5C(N)=O)cc4F)CC3)CC2)ccc1N1CCC(=O)NC1=O	98.74
CN1CCN([C@@H]2CCCN(c3nnc(C(N)=O)c(Nc4ccc(N5CCN(C[C@@H]6CCN(c7ccc8c(c7)C(=O)N(C7CCC(=O)NC7=O)C8=O)C6)CC5)c(F)c4)n3)C2)C1=O (some centres unmarked)	96.67

Please find the next molecule below.
Qu. Item: CN1CCN([C@@H]2CCCN(c3nnc(C(N)=O)c(Nc4ccc(C5CCN(CC6CCN(c7ccc8c(c7)C(=O)N(C7CCC(=O)NC7=O)C8=O)CC6)CC5)cc4)n3)C2)C1=O (some centres unmarked) Test system: OCL-LY10 transplanted tumors Read-out: TGI (%) Value: ?
Ans. 95.66

---

Target: BTK (Homo sapiens)
Construct: endogenous in cells; host or cells: Mino cells
Assay: BTK degradation activity test in Mino cells
Assay type: cell-based
Details: 16 h incubation, Western blot or Elisa
Catalogue of DC50 values

COMPOUND	DC50
Cc1cc(N2CCC(CN3CCC(c4ccc(Nc5nc(N6CCC[C@@H](N7CCN(C)C7=O)C6)c(F)nc5C(N)=O)cc4F)CC3)CC2)ccc1N1CCC(=O)NC1=O [Compound 241]	< 1 nM
CN1CCN([C@@H]2CCCN(c3nnc(C(N)=O)c(Nc4ccc(N5CCN(C[C@@H]6CCN(c7ccc8c(c7)C(=O)N(C7CCC(=O)NC7=O)C8=O)C6)CC5)c(Cl)c4)n3)C2)C1=O (some centres unmarked) [Compound 159]	< 1 nM
CN1C(=O)N(C2CCCN(c3cnc(C(N)=O)c(Nc4ccc(C5(C)CCN(C6CN(c7ccc8c(c7)C(=O)N(C7CCC(=O)NC7=O)C8=O)C6)CC5)cc4)n3)C2)CC12CC2 (centres unmarked) [Compound 010]	> 1 nM

Qu. Quick check: DC50 of NC(=O)c1nnc(N2CCCC(N3CCN(c4ccccc4)C3=O)C2)nc1Nc1ccc2c(c1)CCN(C1CN(c3ccc4c(c3)C(=O)N(C3CCC(=O)NC3=O)C4=O)C1)C2 (centres unmarked) [Compound 093] ?
Ans. > 1 nM

Qu. Data request, read-out DC50, for NC(=O)c1nnc(N2CC3CC(N4CCN(C5CCCC5)C4=O)C2C3)nc1Nc1ccc(C2CCN(CC3CCN(c4ccc5c(c4)C(=O)N(C4CCC(=O)NC4=O)C5=O)CC3)CC2)cc1 (centres unmarked) [Compound 072]
Ans. < 1 nM
